Assay: In vitro inhibition fibrin clot formation after addition of thrombin.
Format: functional, Homo sapiens
parameter_measured: pIC50
Give only the number. pIC50 is defined as minus log10 of concentration in molar units.

Record excerpt, results attached:
CC[C@H](C)[C@H](NC(=O)[C@@H]1CCCN1C(=O)C(CCC(=O)O)NC(=O)[C@H](Cc1ccc(O)cc1)NC(=O)CCC(=O)O)C(=O)N1CCC[C@H]1C(=O)NC(CCC(=O)O)C(=O)NC(CCC(=O)O)C(=O)N[C@@H](C)C(=O)N[C@@H](Cc1ccc(N)cc1)C(=O)NC(CCC(=O)O)C(=O)O (stereo in doubt)
5.54
CC[C@H](C)[C@H](NC(=O)[C@@H]1CCCN1C(=O)C(CCC(=O)O)NC(=O)[C@H](Cc1ccc(O)cc1)NC(=O)CCC(=O)O)C(=O)N1CCC[C@H]1C(=O)NC(CCC(=O)O)C(=O)NC(CCC(=O)O)C(=O)N[C@@H](Cc1ccc(NS(=O)(=O)O)cc1)C(=O)N[C@@H](CC(C)C)C(=O)NC(CCC(=O)O)C(=O)O (stereo in doubt)
6.92

-- ask Query (compound): CC[C@H](C)[C@H](NC(=O)[C@@H]1CCCN1C(=O)C(CCC(=O)O)NC(=O)[C@H](Cc1ccc(O)cc1)NC(=O)CCC(=O)O)C(=O)N1CCC[C@H]1C(=O)NC(CCC(=O)O)C(=O)NC(CCC(=O)O)C(=O)N[C@@H](Cc1ccc([N+](=O)[O-])cc1)C(=O)N[C@@H](CC(C)C)C(=O)NC(CCC(=O)O)C(=O)O (stereo in doubt) ; field requested: pIC50
-- reply 5.55
